Data provenance is patent US5583221A.

Tested on: NHEK
Experiment: growth inhibition of cultured keritinocytes (NHEK)
Type: cell-based
Conditions: read-out: IC50 of Compounds in Cells, NHEK
Method: To investigate the effect that Formula I compounds have on cell growth and activity, assays are performed such as to determine growth inhibition of cultured tumor cells and cultured keritinocytes, and neutrophil superoxide anion release by well known techniques. Table 1 also includes data from testing in a cellular assay known as the "Bleb" assay. […]
pIC50: −log10 of the molar value. Where a name gives a salt, the structure may show the parent alone.
Listed here: items and their measured pIC50.

{"molecule": "O=C(N[C@@H]1c2ccccc2C[C@H]1OC(=O)c1cc(O)c(C(=O)c2c(O)cccc2C(=O)O)c(O)c1)c1ccc(O)cc1 (relative stereo)", "pIC50": 4.30}
{"molecule": "O=C(N[C@@H]1c2ccccc2C[C@@H]1OC(=O)c1cc(O)c(C(=O)c2c(O)cccc2C(=O)O)c(O)c1)c1ccc(O)cc1 (relative stereo)", "pIC50": 4.37}
{"molecule": "COC(=O)c1cccc(O)c1C(=O)c1c(O)cc(C(=O)O[C@@H]2Cc3ccccc3[C@H]2NC(=O)c2ccc(O)cc2)cc1O (relative stereo)", "pIC50": 5.30}
{"molecule": "COC(=O)c1cccc(O)c1C(=O)c1c(O)cc(C(=O)O[C@@H]2C3CCN(CC3)C[C@H]2NC(=O)c2ccc(O)cc2)cc1O (relative stereo) [Example 8, trifluoroacetic acid salt]", "pIC50": 4.04}
